Test system: beta-actin DNA
experiment_description: Mitochondrial toxicity in human HepG2 cells assessed as percent inhibition of beta-actin DNA at 10 uM after 14 days by real-time PCR
Type: cell-based
metric_name: inhibition at 336 h, 10 µM (%)
Answers are plain numbers, in %.

For this molecule ( Nc1ccn([C@H]2CC[C@@H](CO)O2)c(=O)n1 ), measured inhibition at 336 h, 10 µM is 61.4

###

experiment_description: Cytotoxicity against african green monkey Vero cells after 2 to 4 days by MTT assay
Assay type: cell-based
measurement_setup: chlorocebus sabaeus
metric_name: CC50

For this compound ( Cc1cn([C@H]2C[C@H](N=[N+]=[N-])[C@@H](CO)O2)c(=O)[nH]c1=O ), measured CC50 is > 100 µM

###

subject_of_test: Human immunodeficiency virus type 1 reverse transcriptase (Human immunodeficiency virus 1)
experiment_description: Activity at HIV1 reverse transcriptase measured after 30 mins
Please go through the items and note down their Activity.
Answers are plain numbers, in s⁻¹.

>>> measured_number("Nc1nc2c(ncn2[C@H]2C[C@H](O)[C@@H](COP(=O)(O)OP(=O)(O)OP(=O)(O)O)O2)c(=O)[nH]1 [DEOXYGUANOSINE TRIPHOSPHATE]")
7.5

Consider the following items and state reported Activity for each.
1. Nc1ccn([C@H]2C[C@H](O)[C@@H](COP(=O)(O)OP(=O)(O)OP(=O)(O)O)O2)c(=O)n1
2. C[C@H](Cn1cnc2c(N)ncnc21)OCP(=O)(O)OP(=O)(O)OP(=O)(O)O

Given back:
1.2
6.2
